Where do the numbers come from? From PubChem BioAssay AID691.

- Test system: Zebrafish larvae lipid metabolism, fluorescent lipid gallbladder/intestine
- Assay Info: larval zebrafish lipid processing modulation – whole organism, confirmation, fluorescent lipid, gallbladder/intestine, dose response (AID 691)
Inconclusive results are not listed. Activity calls are given as the source filed them. How the calls were made is not given here.
Please state which outcome applies, choosing from yes (1) for active, no (0) for inactive

Assay outcome for COC(=O)C1=C(N)Oc2cc(C)oc(=O)c2C1c1ccncc1 (stereo not given) : what was it?
no (0)

Assay outcome for CCCC1CC(=O)OC1(C)C(=O)CSc1n[nH]c(-c2ccccc2)n1 (stereo not given) : what was it?
no (0)

Assay outcome for C=CCn1c(N)c(C(=O)Nc2ccccc2)c2nc3ccccc3nc21 : what was it?
no (0)

Assay outcome for CN(C)[C@@H]1C(=O)C(C(N)=O)=C(O)[C@@]2(O)C(=O)C3=C(O)c4c(O)ccc(Cl)c4[C@@H](O)[C@H]3C[C@@H]12 : what was it?
no (0)

Assay outcome for CCCCOc1ccccc1C(=O)NCCCC(=O)O : what was it?
no (0)

Assay outcome for CCN(CC)C(=O)c1sc2nc(-c3cccs3)cc(-c3cccs3)c2c1N : what was it?
yes (1)

Assay outcome for Cc1c(N=Cc2c(O)n(C3CCCCC3)c(=O)[nH]c2=O)c(=O)n(-c2ccccc2)n1C : what was it?
no (0)

Assay outcome for c1ccc(CN2CCN(c3ncnc4c3[nH]c3ccccc34)CC2)cc1 : what was it?
yes (1)

Assay outcome for CNc1ccccc1-c1nc2ccccc2n(C)c1=O : what was it?
yes (1)

Assay outcome for Cc1csc(NC(=O)Nc2cccc(Cl)c2)n1 : what was it?
no (0)
